- Test system: HIV-1
- assay-comment: C8166 HIV-1 Luciferase Assay (EC50)
- Format: cell-based
- details: Human immunodeficiency virus 1, C8166, 72 h
pEC50: −log10 of the molar value.
Label yes (1) for high-side pEC50 (at or above 8) and no (0) for low-side pEC50 (below it).

molecule	assayed-system	qualitative-label
CCn1cc(-c2cnc3oc4c(-c5ccc(NC)nc5)nc(=O)n(CCC5CCCCO5)c4c3c2)cn1 (stereo not drawn)	HIV-1	no (0)
CNc1ccc(-c2nc(=O)n(CCC3CCCO3)c3c2oc2ncc(-c4cnco4)cc23)cn1 (stereo not drawn)	HIV-1	no (0)
CC[C@H]1C[C@@H](n2c(=O)nc(-c3cnn(C)c3)c3oc4c(C)cc(-c5cnn(C)c5)cc4c32)CCO1	HIV-1	yes (1)
CC[C@H]1C[C@@H](n2c(=O)nc(-c3cnn(C)c3)c3oc4ccc(-c5cnn(C)c5)nc4c32)C[C@@H](C)O1	HIV-1	yes (1)
C[C@@H]1C[C@H](n2c(=O)nc(-c3cnn(C)c3)c3oc4cc(C#N)c(-c5cnn(C)c5)nc4c32)C[C@H](C)O1	HIV-1	no (0)
CC[C@H]1C[C@@H](n2c(=O)nc(-c3cnn(C)c3)c3oc4cnc(-c5cnco5)cc4c32)CCO1	HIV-1	no (0)
CC[C@H]1C[C@@H](n2c(=O)nc(-c3cnn(C)c3)c3oc4cc(C#N)c(-c5cnn(C)c5)cc4c32)C[C@@H](C)O1	HIV-1	no (0)
CC[C@H]1C[C@@H](n2c(=O)nc(-c3cnn(C)c3)c3oc4ccc(-c5cnn(C)c5)nc4c32)CCO1	HIV-1	yes (1)
CC[C@H]1C[C@@H](n2c(=O)nc(-c3cnn(C)c3)c3oc4ccc(-n5cncn5)nc4c32)CCO1	HIV-1	no (0)
C[C@@H]1C[C@H](n2c(=O)nc(-c3cnn(C)c3)c3oc4cnc(-c5cnn(C)c5)cc4c32)C[C@H](C)O1	HIV-1	no (0)
CC[C@H]1C[C@@H](n2c(=O)nc(-c3cnn(C)c3)c3oc4cnc(-c5cnn(CCOC)c5)cc4c32)CCO1	HIV-1	no (0)
Cn1cc(-c2cnc3oc4c(-c5cnn(C)c5)nc(=O)n(CCC5CCCCO5)c4c3c2)cn1 (stereo not drawn)	HIV-1	no (0)
CC[C@H]1C[C@@H](n2c(=O)nc(-c3cnn(C)c3)c3oc4cc(Cl)c(-c5cnn(C)c5)nc4c32)CCO1	HIV-1	yes (1)
CC[C@H]1C[C@@H](n2c(=O)nc(-c3cnn(C)c3)c3oc4cc(F)c(-c5ccc(CO)nc5)cc4c32)CCO1	HIV-1	no (0)
CC[C@H]1C[C@@H](n2c(=O)nc(-c3cnn(C)c3)c3oc4cc(F)c(-c5cnc(C)o5)cc4c32)CCO1	HIV-1	no (0)
